Molecular target: SARS-CoV-2 NSP3 macrodomain (Mac1) (Severe acute respiratory syndrome coronavirus 2)
Assay type: binding
Conditions: crystal soak 10 mM; TFA/DMSO background map
Readout Name: PanDDA run, TFA/DMSO background map: Hit

# count of solved cases: 4
- Compound: "OCC(Nc1ncnc2[nH]ccc12)c1ccco1 (centres unmarked)"
  Readout Name: "PanDDA run, TFA/DMSO background map: Hit"
  Val: "TRUE"
- Compound: "O=C(O)C(F)(F)F.OC[C@H]1CC2(CN1c1ncnc3[nH]ccc13)OCCO2"
  Readout Name: "PanDDA run, TFA/DMSO background map: Hit"
  Val: "TRUE"
- Compound: "OCC(Cc1cccs1)Nc1ncnc2[nH]ccc12 (centres unmarked)"
  Readout Name: "PanDDA run, TFA/DMSO background map: Hit"
  Val: "TRUE"
- Compound: "CN(C)CC(CO)Nc1ncnc2[nH]ccc12 (centres unmarked)"
  Readout Name: "PanDDA run, TFA/DMSO background map: Hit"
  Val: "TRUE"

Please report the recorded PanDDA run, TFA/DMSO background map: Hit for OCC(CN1CCCCC1)Nc1ncnc2[nH]ccc12 (centres unmarked) .
TRUE

Please report the recorded PanDDA run, TFA/DMSO background map: Hit for OCC(COCc1ccccc1)Nc1ncnc2[nH]ccc12 (centres unmarked) .
TRUE

Please report the recorded PanDDA run, TFA/DMSO background map: Hit for Cn1cc(CC(CO)Nc2ncnc3[nH]ccc23)cn1 (centres unmarked) .
TRUE

Please report the recorded PanDDA run, TFA/DMSO background map: Hit for "C[C@@H](O)[C@H](CO)Nc1ncnc2[nH]ccc12.O=C(O)C(F)(F)F" .
TRUE

Please report the recorded PanDDA run, TFA/DMSO background map: Hit for OC1CCCN(c2ncnc3[nH]ccc23)C1 (centres unmarked) .
TRUE
